The entries that follow carry IC50 values tested on JNK3 (Homo sapiens, UniProt P53779), drawn from several published reports.

Solved entries (count: 5):
- GIVEN SMILES: "CC(C)N[C@H]1CC[C@H](c2cnc3[nH]cc(-c4cnn(C)c4)c3c2)CC1"
  VALUE REPORTED: "320 nM"
- GIVEN SMILES: "Cc1sc(C(=O)NC2COC2)cc1-n1ncc2cc(Nc3ccccc3Cl)cnc21"
  VALUE REPORTED: "< 200 nM"
- GIVEN SMILES: "O=C(c1ccccc1O)c1c[nH]c2ncc(-c3cccs3)cc12"
  VALUE REPORTED: "≤ 10000 nM"
- GIVEN SMILES: "CC(=O)Nc1cccc(Nc2cnc3[nH]ccc3c2)c1"
  VALUE REPORTED: "≤ 10000 nM"
- GIVEN SMILES: "Cc1ccccc1NC(=O)Nc1cccc(C(=O)c2c[nH]c3ncc(-c4cccnc4)cc23)c1"
  VALUE REPORTED: "≤ 10000 nM"

Answer with reported IC50 of O=C(Cn1c(=O)ccn2nc(C(F)(F)F)cc12)Nc1scc(Br)c1-c1ncn[nH]1
< 100 nM

Let me know recorded IC50 for Cc1noc(-c2c(C)csc2NC(=O)Cc2cccc3ccccc23)n1 , thanks.
100 to 10000 nM

Hello, please tell me recorded IC50 for this one: C[C@H](NC(=O)c1ccc2[nH]nc(-c3cc4ccccc4s3)c2c1F)C(N)=O
143 nM

Tell me measured IC50 for Cn1cc(-c2c[nH]c3ncc(C4=CC5(CC4)OCCO5)cc23)cn1 please.
191 nM

Output IC50 of CN1CCN(C(=O)c2nc(-c3c[nH]c4ncc(C5=CCCC5)cc34)cs2)CC1
86 nM

Give the reported IC50 for this molecule. Cn1ncnc1-c1sccc1NC(=O)Cc1cccc2ccccc12
> 50000 nM

Please list IC50 recorded for the molecule Cn1cc(-c2c[nH]c3ncc([C@H]4CC[C@@H](NCCO)CC4)cc23)cn1
692 nM

Tell me its IC50 given CC(C)CCCc1cnc2[nH]cc(-c3cnn(C)c3)c2c1 as the entry.
< 200 nM
